Target: PRKAA2 (human)
reported_metric: Ki
Respond with the figure and its unit, in that order.

Problem: Entry `COc1cc2nccc(Oc3ccc(NC(=O)Nc4cc(C)on4)c(Cl)c3)c2cc1OC` has what Ki?
Result: 1500 nM

---

Target: CSF1R (human) (UniProt P07333)
Sequence (P07333 whole entry, looked up): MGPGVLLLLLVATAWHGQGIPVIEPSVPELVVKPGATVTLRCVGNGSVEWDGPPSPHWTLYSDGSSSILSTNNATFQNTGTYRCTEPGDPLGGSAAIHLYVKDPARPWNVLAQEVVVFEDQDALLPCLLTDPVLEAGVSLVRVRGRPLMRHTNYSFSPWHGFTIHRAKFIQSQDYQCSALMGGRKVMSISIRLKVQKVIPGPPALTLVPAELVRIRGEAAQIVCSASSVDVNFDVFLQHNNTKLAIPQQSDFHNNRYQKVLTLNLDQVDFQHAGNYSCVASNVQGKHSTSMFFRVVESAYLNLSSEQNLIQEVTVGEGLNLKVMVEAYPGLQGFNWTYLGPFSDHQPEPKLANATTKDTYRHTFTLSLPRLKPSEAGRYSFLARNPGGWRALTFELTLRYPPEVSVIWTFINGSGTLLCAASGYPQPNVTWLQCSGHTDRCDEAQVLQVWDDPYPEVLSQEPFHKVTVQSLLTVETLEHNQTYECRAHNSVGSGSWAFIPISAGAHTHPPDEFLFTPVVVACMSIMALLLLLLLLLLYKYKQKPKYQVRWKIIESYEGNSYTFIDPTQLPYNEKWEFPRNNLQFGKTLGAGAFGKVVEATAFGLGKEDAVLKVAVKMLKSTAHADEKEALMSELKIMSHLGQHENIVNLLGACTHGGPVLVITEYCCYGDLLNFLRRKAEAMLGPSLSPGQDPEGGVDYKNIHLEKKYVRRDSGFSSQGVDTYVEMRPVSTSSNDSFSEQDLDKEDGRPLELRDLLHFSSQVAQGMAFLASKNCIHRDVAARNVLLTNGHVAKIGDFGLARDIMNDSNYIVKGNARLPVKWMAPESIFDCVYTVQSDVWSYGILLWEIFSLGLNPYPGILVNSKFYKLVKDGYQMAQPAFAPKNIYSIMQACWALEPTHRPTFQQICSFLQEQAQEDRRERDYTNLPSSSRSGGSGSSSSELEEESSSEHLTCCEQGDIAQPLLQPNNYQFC
reported_metric: pKi
// returns pKi (minus log10 of molar concentration), number only

Problem: Please report the recorded pKi for `COc1cc2nccc(Oc3ccc(NC(=O)Nc4cc(C)on4)c(Cl)c3)c2cc1OC` .
Result: 7.34

---

Here, each record is paired with measured inhibition data.
Target: UniProtKB Q15119
Test: Caliper, Mobility shift assay off-chip
Details: compound 0.2 µM
Entry rule: numbers only, all in %.

Problem: Any idea what its inhibition is? The compound is `Cc1ccc(Nc2nccc(N(C)c3ccc4c(C)n(C)nc4c3)n2)cc1S(N)(=O)=O`
Result: -4.2

Problem: Do the same for `COc1cc2c(Oc3ccc4[nH]c(C)cc4c3F)ncnc2cc1OCCCN1CCCC1` please
Result: -4.9

Problem: And `CNC(=O)c1cc(Oc2ccc(NC(=O)Nc3ccc(Cl)c(C(F)(F)F)c3)cc2)ccn1` ?
Result: 1.3

Problem: Also `CCN(CC)CCNC(=O)c1c(C)[nH]c(/C=C2\C(=O)Nc3ccc(F)cc32)c1C` ?
Result: -1.2
